- testSummary: FRG1 promoter luciferase signal modulators, primary screen, FRG1 inhibition for FSHD, cell-based, C2C12 myotubes, firefly/Renilla luciferase, luminescence (AID 1084)
- details: higher = more signal, called active from +8 up or from −8 down
Here, each record is paired with measured z-score data.
Give the figure only, with no unit attached.

The cases that follow already have their z-score on record.
[
  {
    "compound": "CO[C@H]1O[C@H](CO)[C@@H](OC(=O)Nc2ccc(C(F)(F)F)cc2)[C@H](OC(=O)Nc2ccc3c(c2)OCO3)[C@H]1OC(=O)Nc1ccc2c(c1)OCO2",
    "reportedResult": 6.45
  },
  {
    "compound": "O=C1O[C@@H](c2ccccc2)[C@@H](c2ccccc2)N2[C@@H](c3ccccc3OCCO)[C@]3(C(=O)Nc4ccc(C#CCCO)cc43)[C@@H](C(=O)Nc3nc4ccccc4s3)[C@H]12",
    "reportedResult": -2.4
  },
  {
    "compound": "COc1cc2c(cc1O)C(C)N(Cc1cc3c(cc1Br)OCO3)CC2 (configuration not stated)",
    "reportedResult": 0.0288
  },
  {
    "compound": "COC(=O)[C@@]1(Cc2ccccc2)[C@H]2c3cc(C(=O)N4CCCC4)[nH]c3C[C@H]2CN1C(=O)c1ccccc1",
    "reportedResult": 0.535
  }
]

Request: Find the recorded z-score belonging to CC(C)(C)OC(=O)CC[C@]1(C(=O)O)N=C(c2ccc(OCCCO)cc2)O[C@H]1c1ccccc1 and report it.
Response: 1.9

Request: Find the recorded z-score belonging to Cc1ccc(S[C@]2(C(=O)NCCN3CCOCC3)CC(=O)N(Cc3ccccc3C(F)(F)F)[C@@H]2c2ccc(CO)cc2I)cc1 and report it.
Response: -0.883

Request: Find the recorded z-score belonging to CN(C)CCCN1C(=O)[C@@]2(c3ccc([N+](=O)[O-])cc3)CC(=O)N(CC34CC5CC(CC(C5)C3)C4)[C@@H]2c2ccc(CO)cc21 and report it.
Response: 0.0832

====

- testSummary: E. coli acrAB mutant growth effects, primary screen, E. coli filamentation inducers, strain DRC39, OD650, 24 h (AID 1178);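 further: growth measured as culture turbidity by optical density at 650 nm; test concentration not given here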
- details: higher = more signal, called active from +8 up or from −8 down
Calls of active or inactive are those of the source.
observationType: z-score

[
  {
    "compound": "CC(C)CN1C(=O)[C@@]2(Cc3ccccc31)c1ccccc1C(=O)N(Cc1ccccc1C(F)(F)F)[C@H]2c1ccc(CO)cc1",
    "observationType": "z-score",
    "reportedResult": "0.897 (inactive)"
  },
  {
    "compound": "CC(=O)NCCCC[C@@H]1NC(=O)[C@@H]2C[C@H](C(=O)O)[C@H](c3ccc(O)cc3)N2C1=O",
    "observationType": "z-score",
    "reportedResult": "0.0763 (inactive)"
  },
  {
    "compound": "C=C(/C=C/CNS(=O)(=O)c1ccc(C)cc1)[C@H](O)[C@H]1CCCN1S(=O)(=O)c1ccccc1[N+](=O)[O-]",
    "observationType": "z-score",
    "reportedResult": "1.45 (inactive)"
  }
]

Continue with the next compound.
Request: Find the recorded z-score belonging to CC1CC/C=C\[C@H]2OC34C=CCN(c5ccc6ccccc6c5)C(=O)[C@H]3N(C(CO)C(C)C)C(=O)[C@@H]4C2C(=O)O1 (some centres undefined) and report it.
Response: 0.0932 (inactive)

Hello, the source for this data is PubChem BioAssay, in case you need it.
